Values compiled from ChEMBL document CHEMBL1148242.

System: PC-3
Test details: In vitro cytotoxic activity of compound against human PC3 cell line
Assay type: functional, cell-based
IC50 vs 5 µM: less than gives Criterion met; not less than gives Criterion not met.

| Structure string | System name | Class name |
| --- | --- | --- |
| Cc1c2c(nc3ccc(OCCN4CCCCC4)cc13)-c1cc3cc(OCCN4CCCCC4)ccc3n1C2 | PC-3 | Criterion not met |
| COc1ccc2c(c1)cc1n2Cc2c-1nc1ccc(OCCN3CCCCC3)cc1c2C | PC-3 | Criterion not met |
| COc1ccc2c(c1)cc1n2Cc2c-1nc1ccc(O)cc1c2C | PC-3 | Criterion not met |
| CC[C@@]1(O)C(=O)OCc2c1cc1n(c2=O)Cc2cc3ccccc3nc2-1 | PC-3 | Criterion met |
| Cc1c2c(nc3ccc(O)cc13)-c1cc3cc(O)ccc3n1C2 | PC-3 | Criterion not met |
| CCc1c2c(nc3ccc(OCCN4CCCCC4)cc13)-c1cc3cc(O)ccc3n1C2 | PC-3 | Criterion met |
